Target: GST-tagged full-length FAK enzyme (PTK2) (Homo sapiens)
Construct: GST-tagged full-length FAK enzyme (PTK2, Invitrogen PV4085); GST; purchased Invitrogen PV4085
Sequence (Q05397 whole entry): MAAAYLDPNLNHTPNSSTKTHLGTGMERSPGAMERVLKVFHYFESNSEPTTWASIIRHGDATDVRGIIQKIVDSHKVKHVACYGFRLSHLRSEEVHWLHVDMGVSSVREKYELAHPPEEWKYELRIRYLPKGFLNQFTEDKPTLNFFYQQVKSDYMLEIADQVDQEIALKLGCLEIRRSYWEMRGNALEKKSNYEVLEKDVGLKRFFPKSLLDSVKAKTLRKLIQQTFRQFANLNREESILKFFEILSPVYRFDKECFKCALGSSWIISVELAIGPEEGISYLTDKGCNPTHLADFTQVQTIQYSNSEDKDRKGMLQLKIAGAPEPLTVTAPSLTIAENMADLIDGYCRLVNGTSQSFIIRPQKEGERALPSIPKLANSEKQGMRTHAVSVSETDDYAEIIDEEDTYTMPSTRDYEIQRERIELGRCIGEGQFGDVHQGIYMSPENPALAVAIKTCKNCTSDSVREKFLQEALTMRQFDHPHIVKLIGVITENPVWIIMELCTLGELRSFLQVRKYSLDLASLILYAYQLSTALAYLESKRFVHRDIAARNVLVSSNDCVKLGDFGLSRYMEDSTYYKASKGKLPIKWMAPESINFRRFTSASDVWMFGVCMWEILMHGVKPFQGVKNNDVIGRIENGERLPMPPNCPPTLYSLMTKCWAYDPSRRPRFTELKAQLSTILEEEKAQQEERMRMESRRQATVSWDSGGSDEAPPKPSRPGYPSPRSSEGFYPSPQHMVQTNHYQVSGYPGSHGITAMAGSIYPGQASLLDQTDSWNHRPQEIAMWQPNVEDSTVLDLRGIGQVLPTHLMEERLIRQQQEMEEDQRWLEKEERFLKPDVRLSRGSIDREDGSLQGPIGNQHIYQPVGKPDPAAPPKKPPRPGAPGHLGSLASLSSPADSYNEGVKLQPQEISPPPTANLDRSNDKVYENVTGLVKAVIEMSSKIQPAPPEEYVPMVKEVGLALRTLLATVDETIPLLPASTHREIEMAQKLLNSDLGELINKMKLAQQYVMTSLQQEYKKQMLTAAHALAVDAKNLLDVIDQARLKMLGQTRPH
Assay: Biochemical Omnia Assay (FAK)
Settings: mean IC50; [ATP] = 50uM; read-out: FAK Activity Biochemical OMNIA; [ATP] = 50uM
# IC50 annotations

What the record says about CCOP1(=O)Cc2ccc(c(OC)c2)Nc2ncc(C(F)(F)F)c(n2)Nc2ccc(nc2C(=O)NC)-c2cnn(c2C)CCCO1 (single isomer, unassigned) [Example 35A] : IC50 is < 400 nM

The measured IC50 associated with CCOP1(=O)Cc2ccc(c(OC)c2)Nc2ncc(C(F)(F)F)c(n2)Nc2ccc(nc2C(=O)NC)-c2cnn(c2)C(C)(C)CCO1 (racemic) [Example 50] reads < 400 nM

Short answer for CCOP1(=O)Cc2ccc(c(OC)c2)Nc2ncc(C(F)(F)F)c(n2)Nc2ccc(nc2C(=O)NC)-c2cnn(c2)CC(C)CO1 (single isomer, unassigned) [Example 18] : IC50 was < 400 nM

Data provenance: patent US9133224B2
